// provenance: PubChem BioAssay (NCATS)

# Tested on: ICS
# Test details: qHTS profiling for inhibitors of Plasmodium falciparum proliferation (AID 504749); further: nearly all actives have a fitted effect of over 60% in size; further: potency means the concentration at half of the fitted maximal effect
# Experimental parameters: P. falciparum in erythrocytes, SYBR Green DNA, 72 h; series mostly up to 28.7 µM
Records with an inconclusive call do not appear. Active and inactive are the calls of the source. The call rests on the fitted dose curve; in most records, active means well fitted inhibition curve with a large enough effect; inconclusive means small, poorly fitted or top-dose-only effect; inactive means flat fitted curve, though single readings scatter.

# Compound, Potency
records = [
    ("CCC1OC(=O)C[C@H](O)C(C)[C@@H](O[C@@H]2OC(C)C(O)C(N(C)C)C2O)C(CCN2CC(C)CC(C)C2)CC(C)C(=O)/C=C/C(C)=C\\[C@@H]1COC1OC(C)C(O)C(OC)C1OC (stereo partly drawn)", "10 µM (active)"),
    ("CC1=C(/C=C/C(C)=C\\C=C\\C(C)=C\\C=C\\C=C(C)\\C=C\\C=C(C)\\C=C\\C2=C(C)C[C@@H](O)CC2(C)C)C(C)(C)C[C@H](O)C1", "1.12 µM (active)"),
    ("CC[C@H](C)[C@H]1O[C@]2(CC[C@@H]1C)C[C@@H]1C[C@@H](C/C=C(\\C)[C@H](O[C@@H]3C[C@H](OC)[C@H](O[C@@H]4C[C@H](OC)[C@@H](O)[C@H](C)O4)[C@H](C)O3)[C@@H](C)/C=C/C=C3\\CO[C@@H]4[C@H](O)C(C)=C[C@@H](C(=O)O1)[C@]34O)O2", "1.26 µM (active)"),
]

---

# System: CP201
# Test details: qHTS profiling for inhibitors of Plasmodium falciparum proliferation (AID 504749); further: nearly all actives have a fitted effect of over 60% in size
# Experimental parameters: P. falciparum in erythrocytes, SYBR Green DNA, 72 h; series mostly up to 28.7 µM
Results filed as inconclusive are left out. Activity calls are given as the source filed them. The call rests on the fitted dose curve; in most records, active means well fitted inhibition curve with a large enough effect; inconclusive means small, poorly fitted or top-dose-only effect; inactive means flat fitted curve, though single readings scatter.
Labels: true (active), false (inactive)

# Compound, Qualitative label
data = [
    ("Cn1cc(C(=O)[C@@H]2CCc3[nH]cnc3C2)c2ccccc21", "false"),
    ("CN1[C@H]2CC(OC(=O)[C@H](CO)c3ccccc3)C[C@H]1[C@H]1O[C@H]12 (some centres not stated)", "false"),
    ("O=C(O)c1ccc(N[C@@H]2OC[C@@H](O)[C@@H](O)[C@@H]2O)cc1", "false"),
    ("CC(c1ncncc1F)[C@](O)(Cn1cncn1)c1ccc(F)cc1F (some centres not stated)", "false"),
    ("CCCCCCCCCCCC(=O)OCC(O)C1OCC(O)C1O (configuration not stated)", "false"),
    ("CCC(C(=O)C(C)C(O)C(C)CCc1ccc(C)c(O)c1C(=O)O)C1OC(CC)(C2CC[C@@](O)(CC)C(C)O2)CC1C (some centres not stated)", "true"),
    ("CO/N=C(/C(=O)N[C@@H]1C(=O)N2C(C(=O)O)=C(CSc3cnns3)CS[C@H]12)c1csc(N)n1", "false"),
    ("Cc1c(C)c2c(c(C)c1O)CCC(C)(CCCC(C)CCCC(C)CCCC(C)C)O2 (configuration not stated)", "false"),
    ("C#C[C@@]1(O)CC[C@@H]2[C@H]3CCC4=C/C(=N\\O)CC[C@H]4[C@@H]3CC[C@]21CC", "false"),
    ("CC1=C(/C=C/C(C)=C\\C=C\\C(C)=C\\C=C\\C=C(C)\\C=C\\C=C(C)\\C=C\\C2=C(C)C[C@@H](O)CC2(C)C)C(C)(C)C[C@H](O)C1", "false"),
    ("COC(c1ccccc1)(c1ccccc1)C(Oc1nc(C)cc(C)n1)C(=O)O (configuration not stated)", "false"),
    ("O=C(OC[C@@H]1O[C@@](O)(COC(=O)c2cccnc2)[C@H](OC(=O)c2cccnc2)[C@H]1OC(=O)c1cccnc1)c1cccnc1", "false"),
    ("CO/N=C(/C(=O)N[C@@H]1C(=O)N2C(C(=O)O)=C(CSc3nnnn3C)CS[C@H]12)c1csc(N)n1", "false"),
    ("CCCC[C@H]1C(=O)N(c2ccccc2)N(c2ccc(O)cc2)C1=O", "false"),
    ("CC[C@@H]1/C=C(\\C)C[C@H](C)C[C@H](OC)[C@H]2O[C@@](O)(C(=O)C(=O)N3CCCC[C@H]3C(=O)O[C@H](/C(C)=C/[C@@H]3CC[C@H](Cl)[C@H](OC)C3)[C@H](C)[C@@H](O)CC1=O)[C@H](C)C[C@@H]2OC", "false"),
    ("C[C@H](O)[C@@H]1C(=O)N2C(C(=O)O)=C(SCCN=CN)C[C@@H]12", "false"),
    ("Cc1cc2nc3c(=O)[nH]c(=O)nc-3n(CC(O)C(O)C(O)COP(=O)(O)O)c2cc1C (configuration not stated)", "false"),
]

---

# Test details: AP1 Signaling Pathway (AID 357);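 further: ME-180 reporter cells stimulated with EGF at its EC50 level; on the % scale 0 is the no-effect control and ±100 the full control effect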
# Experimental parameters: ME-180 (cervical carcinoma) AP-1-bla reporter, EGF-induced, beta-lactamase ratio, 5 h; at 17.2 µM (top of the series) unless noted
Records with an inconclusive call do not appear.

# Molecule, activity change, negative = inhibition, %
data = [
    ("O=P(O)(c1ccccc1)c1ccccc1O", 6.62),
    ("CCc1ccc2c(c1)C(C)=CC(C)(C)N2", 1.34),
    ("CCCCNC(=O)C(C#N)c1nc2ccccc2nc1N1CCN(c2ccccc2F)CC1 (stereo unspecified)", -4.46),
    ("COc1ccc(/C(O)=C2/C(=O)C(=O)N(CCN3CCOCC3)C2c2cccnc2)cc1OC (stereo unspecified)", -2.7),
    ("Cc1nc(/N=C(\\N)Nc2ccccc2)nc2ccccc12", -14.5),
    ("CC1C[C@@]2(NC(=O)NC2=O)C(C)CN1C (stereo partly specified)", 5.36),
]

---

# Study system: Cytochrome P450 2C19 (Homo sapiens) (UniProt P33261)
# Sequence (P33261 whole entry, looked up): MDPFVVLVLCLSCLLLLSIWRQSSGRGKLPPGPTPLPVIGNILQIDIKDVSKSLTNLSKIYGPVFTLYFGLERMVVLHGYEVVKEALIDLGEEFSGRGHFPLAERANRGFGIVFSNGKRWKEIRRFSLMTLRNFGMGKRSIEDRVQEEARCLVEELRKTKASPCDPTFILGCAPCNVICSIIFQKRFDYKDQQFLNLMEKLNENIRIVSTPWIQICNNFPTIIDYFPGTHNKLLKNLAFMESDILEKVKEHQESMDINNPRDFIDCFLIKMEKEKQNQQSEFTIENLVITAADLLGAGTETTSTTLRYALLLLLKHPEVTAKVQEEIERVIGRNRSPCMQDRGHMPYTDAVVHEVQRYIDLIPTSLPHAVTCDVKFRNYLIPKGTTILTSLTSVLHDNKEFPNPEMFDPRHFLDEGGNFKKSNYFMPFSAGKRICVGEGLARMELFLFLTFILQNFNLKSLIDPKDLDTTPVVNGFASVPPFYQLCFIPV
# Test details: qHTS Assay for Inhibitors and Substrates of Cytochrome P450 2C19 (AID 899); further: nearly all actives have a fitted effect of over 60% in size; further: potency means the concentration at half of the fitted maximal effect
# Experimental parameters: recombinant CYP2C19, luciferin-H EGE luminescence; series mostly up to 57.1 µM
Inconclusive results are not listed. Active and inactive are the calls of the source. Calls come from the whole dose curve; as a rule, active = well fitted inhibition curve with a large enough effect; inconclusive = small, poorly fitted or top-dose-only effect; inactive = no such curve, though single readings can be large or run the other way.

# Smiles record, Potency
data = [
    ("COc1ccc(-c2coc3cc(O[C@@H]4O[C@@H](CO)[C@@H](O)[C@@H](O)[C@H]4O)cc(O)c3c2=O)cc1", "inactive"),
    ("C=C1C(=O)C=C2CN(C(=O)c3ccccc3)[C@@](Cc3ccc(F)cc3)(C(=O)OC)[C@@H]12", "5.01 µM (active)"),
    ("CC1=CC(=O)CC(C)(C)[C@@]1(O)/C=C\\C(C)=C\\C(=O)O", "inactive"),
]

---

# Test details: Cell Viability - MRC5 (AID 434);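 further: potency means the concentration at half of the fitted maximal effect; cells exposed to compound for 40 hours at 37 °C; potency reflects cytotoxicity seen as loss of intracellular ATP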
# Experimental parameters: MRC5 lung fibroblast viability, qHTS
Results filed as inconclusive are left out. Calls of active or inactive are those of the source. Calls come from the whole dose curve.
Possible outcomes: active, inactive

# Compound, Qualitative label
rows = [
    ("Cc1ccc(S(=O)(=O)Oc2ccc(N=Nc3ccc(-c4ccc(N=Nc5c(O)ccc6cc(S(=O)(=O)O)cc(S(=O)(=O)O)c56)c(C)c4)cc3C)cc2)cc1", "inactive"),
    ("ClC1=C(Cl)C(Cl)(Cl)C(Cl)=C1Cl", "inactive"),
    ("Nc1ccc2cc3ccccc3cc2c1", "inactive"),
    ("O=C(/C=C/c1ccc(O)c(O)c1)OC1C[C@](O)(C(=O)O)C[C@@H](O)[C@H]1O (stereo not given in full)", "inactive"),
    ("C=CC(=O)OCC(CO)(COC(=O)C=C)COC(=O)C=C", "active"),
    ("C/C=C1\\C(=O)C[C@H]2[C@@H]3CCC4=CC(=O)CC[C@]4(C)[C@H]3CC[C@]12C", "inactive"),
    ("CN(C)c1ccc(C2(c3ccc(N(C)C)cc3)OC(=O)c3cc(N(C)C)ccc32)cc1", "inactive"),
    ("c1ccc2c(c1)-c1cccc3c1c-2cc1ccccc13", "inactive"),
    ("C=C(C)c1ccccc1", "inactive"),
    ("CCCCCCCC[N+](CCCCCCCC)(CCCCCCCC)CCCCCCCC", "active"),
]

---

# Test details: qHTS for Inhibitors of Plasmodium falciparum (DD2) proliferation (AID 504314)
# Experimental parameters: P. falciparum Dd2 in erythrocytes, SYBR Green growth, 72 h; series mostly up to 1.12 µM
Inconclusive results are not listed. Activity calls are given as the source filed them. The call rests on the fitted dose curve; in most records, active means well fitted inhibition curve with a large enough effect; inconclusive means small, poorly fitted or top-dose-only effect; inactive means flat fitted curve, though single readings scatter.
Classes used: 1 (yes) = active, 0 (no) = inactive

# Molecule, Qualitative label
rows = [
    ("C=CCN1c2ccccc2[C@]23C[C@@H](C(=O)OC)N(S(=O)(=O)c4ccc([N+](=O)[O-])cc4)C2=NC(C(=O)OC)=C(C(=O)OC)[C@H]13", "0 (no)"),
    ("COC(=O)CCCC1=CC2=CC(=O)C(C)(OC(=O)c3cccs3)C(=O)C2=CN1c1ccc(CO)cc1 (stereo not given)", "0 (no)"),
    ("CC1(OC(=O)C2CCCC2)C(=O)C=C2C=C(c3ccsc3)N(CCCCO)C=C2C1=O (stereo not given)", "0 (no)"),
    ("COC(=O)C1=C(C(=O)OC)[C@@H]2N(C)c3ccccc3[C@@]23C[C@@H](C(=O)OC)N(S(=O)(=O)c2ccc(C(F)(F)F)cc2)C3=N1", "0 (no)"),
    ("CCN1C(=O)N[C@@H](c2ccc(Br)cc2)C(C(C)=O)=C1C", "0 (no)"),
    ("COCCN1C(=O)N[C@@H](c2cccc(C(F)(F)F)c2)C(C(=O)OC)=C1C", "0 (no)"),
    ("CC#CCN1c2ccccc2[C@]23C[C@@H](C(=O)OC)N(S(=O)(=O)c4ccc(Br)cc4)C2=NC(C(=O)OC)=C(C(=O)OC)[C@H]13", "0 (no)"),
    ("CCCCc1nc2c(c3c1C[C@H](C)OC3)CN(S(=O)(=O)c1ccc(C#N)cc1)CC2", "0 (no)"),
    ("COCCN1C(=O)N[C@@H](c2cccs2)C(C(C)=O)=C1C", "0 (no)"),
    ("CCCCc1nc2c(c3c1C[C@H](C)OC3)CN(C(=O)N[C@@H](C)c1ccccc1)CC2", "0 (no)"),
    ("Nc1ccccc1C(=O)C=Cc1ccccc1", "0 (no)"),
    ("CCCCC1=CC2=CC(=O)C(C)(OC(=O)CC)C(=O)C2=CN1CCCOC(C)C (stereo not given)", "0 (no)"),
    ("CC#CCN1c2ccccc2[C@]23C[C@@H](C(=O)OC)N(S(=O)(=O)CCCC)C2=NC(C(=O)OC)=C(C(=O)OC)[C@H]13", "0 (no)"),
    ("CC1(OC(=O)CCc2ccccc2)C(=O)C=C2C=C(c3ccc(C#N)cc3)N(CCc3ccccn3)C=C2C1=O (stereo not given)", "0 (no)"),
    ("C[C@H]1Cc2c(-c3ccccc3)nc3c(c2CO1)CN(C(=O)C1CCCCC1)CC3", "0 (no)"),
    ("C=CC[C@]1(C(=O)OC)C=C[C@H](C)[C@@H](c2ccccc2)N1C(=O)C(F)(F)F", "0 (no)"),
    ("COCCN1C(=O)N[C@@H](c2cccc(F)c2)C(C(C)=O)=C1C", "0 (no)"),
    ("COC/C=C/C1=CC2=CC(=O)C(C)(OC(=O)c3cnc4ccccc4n3)C(=O)C2=CN1c1ccccc1 (stereo not given)", "0 (no)"),
    ("C=C(C(C)=O)C(O)C=Cc1ccco1 (stereo not given)", "0 (no)"),
    ("COc1ccc(C2=CC3=C(Br)C(=O)C(C)(OC(=O)c4ccco4)C(=O)C3=CO2)cc1 (stereo not given)", "0 (no)"),
    ("C[C@H]1Cc2c(COc3ccccc3)nc3c(c2CO1)CN(C(=O)c1ccco1)CC3", "0 (no)"),
    ("COC(=O)CCCC1=CC2=CC(=O)C(C)(OC(=O)c3cccs3)C(=O)C2=CN1CCCCO (stereo not given)", "0 (no)"),
    ("CCN1C(=O)N[C@@H](c2ccccc2)[C@H](C(C)=O)[C@H]1C", "0 (no)"),
    ("CCCCC1=CC2=CC(=O)C(C)(OC(=O)CC)C(=O)C2=CN1CCN1CCOCC1 (stereo not given)", "0 (no)"),
    ("COC(=O)C1=C(C(=O)OC)[C@@H]2N(C)c3ccccc3[C@@]23C[C@@H](C(=O)OC)N(S(=O)(=O)c2ccc(C)cc2)C3=N1", "0 (no)"),
    ("COC(=O)C1=C(C)N(Cc2ccccc2)C(=S)NC1c1cccc(F)c1 (stereo not given)", "0 (no)"),
    ("COC(=O)CCCC1=CC2=C(c3ccccc3)C(=O)C(C)(OC(=O)C3CCCC3)C(=O)C2=CN1C(CO)CO (stereo not given)", "0 (no)"),
    ("COc1ccc(-c2nc3c(c4c2C[C@H](c2ccccc2)OC4)CN(C(=O)C2CCCCC2)CC3)c(C)c1", "0 (no)"),
    ("CC#CCN1c2ccccc2[C@]23C[C@@H](C(=O)OC)N(C(=O)C4CCC4)C2=NC(C(=O)OC)=C(C(=O)OC)[C@H]13", "0 (no)"),
    ("COC(=O)CCC(=O)OC1(C)C(=O)C=C2C=C(C3CC3)N(C3CCCC3)C=C2C1=O (stereo not given)", "0 (no)"),
    ("COC(=O)C1=C(C(=O)OC)[C@@H]2Nc3ccccc3[C@@]23C[C@@H](C(=O)OC)N(S(=O)(=O)c2ccc(C)cc2)C3=N1", "0 (no)"),
    ("CCCC[C@]12Cc3c(ccc4ccccc34)[C@H](O1)C1=C(O2)C(=O)c2ccccc2C1=O", "1 (yes)"),
    ("COC(=O)C1=C(C(=O)OC)[C@@H]2Nc3ccccc3[C@@]23C[C@@H](C(=O)OC)N(C(=O)NC2CCCC2)C3=N1", "0 (no)"),
    ("CCOC(=O)C=CCCCC=CC(=O)c1ccccc1", "0 (no)"),
    ("CCCCC1=CC2=C(c3ccco3)C(=O)C(C)(OC(=O)c3ccc(OC)cc3)C(=O)C2=CN1C1CC1 (stereo not given)", "0 (no)"),
]
